Ref: patent US20220177587A1

- system: CD28 (Homo sapiens, UniProt P10747)
- assay_protocol: Flow binding to Jurkat/IL2 reporter cells (CD28)
- Parameters: host or cells: Jurkat cells expressing an IL-2-luciferase reporter
- recorded_conditions: Table E19; MFI at 33.3 nM relative to WT CD80 ECD-Fc (Abcam)
property_label: CD28 Fold change to WT CD80 (fold)
Give bare numbers, in fold.

Hi! Can you tell me CD28 Fold change to WT CD80 for each of these molecules?
1. E35D/D46V/M47L/L85Q (protein) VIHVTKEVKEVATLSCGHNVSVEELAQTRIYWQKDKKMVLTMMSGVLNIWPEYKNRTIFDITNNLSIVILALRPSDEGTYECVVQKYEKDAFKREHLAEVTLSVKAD
2. E35D/V68M/L85Q (protein) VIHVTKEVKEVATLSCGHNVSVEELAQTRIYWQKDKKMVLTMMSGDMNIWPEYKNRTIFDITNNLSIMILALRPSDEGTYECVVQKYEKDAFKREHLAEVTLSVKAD
3. E35D/K89N (protein) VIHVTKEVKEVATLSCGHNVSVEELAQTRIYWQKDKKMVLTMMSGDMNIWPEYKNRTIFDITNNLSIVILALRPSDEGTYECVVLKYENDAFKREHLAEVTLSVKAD
4. E35D/D46V/M47V/V68M/L85Q (protein) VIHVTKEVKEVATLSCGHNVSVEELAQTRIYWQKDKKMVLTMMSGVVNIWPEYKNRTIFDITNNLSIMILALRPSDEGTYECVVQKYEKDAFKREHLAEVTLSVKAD
5. E35D/N48K/K89N (protein) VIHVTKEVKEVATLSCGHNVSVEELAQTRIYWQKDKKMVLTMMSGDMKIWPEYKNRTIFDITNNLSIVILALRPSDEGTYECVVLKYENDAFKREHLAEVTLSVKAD

1. 0.4
2. 0.1
3. 0.3
4. 0.5
5. 0.6

Hi! Can you tell me CD28 Fold change to WT CD80 for each of these molecules?
1. M47L (protein) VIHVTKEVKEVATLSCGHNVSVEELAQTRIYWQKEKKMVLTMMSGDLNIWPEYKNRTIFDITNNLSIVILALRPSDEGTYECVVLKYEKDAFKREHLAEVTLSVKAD
2. D46V/M47L/V68M (protein) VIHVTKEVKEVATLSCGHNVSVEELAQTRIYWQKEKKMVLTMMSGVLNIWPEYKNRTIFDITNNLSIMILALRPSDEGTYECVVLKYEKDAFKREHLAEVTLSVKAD
3. M47V (protein) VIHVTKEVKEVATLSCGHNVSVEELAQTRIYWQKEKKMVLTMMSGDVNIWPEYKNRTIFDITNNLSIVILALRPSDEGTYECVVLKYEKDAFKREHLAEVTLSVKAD

[0.4, 3.1, 0.1]
